Biological target: T1, His-tagged PCSK9Δhelix (human, UniProt Q8NBP7 31-152; Q8NBP7 168-692)
T1 construct: Human PCSK9 M1-Q692 with an engineered TEV site, cut by TEV protease; new N-terminus of the catalytic domain is S-A168; also called His-PCSK9Δhelix; not shown: His tag
T1 sequence (Q8NBP7 31-152, stated change not applied, chain 1 of 2): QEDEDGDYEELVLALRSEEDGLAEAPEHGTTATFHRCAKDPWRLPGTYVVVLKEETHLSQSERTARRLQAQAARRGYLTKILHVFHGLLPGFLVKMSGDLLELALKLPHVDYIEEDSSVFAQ
T1 sequence (Q8NBP7 other isoform, or with tags, fused parts or gaps mutant, chain 2 of 2): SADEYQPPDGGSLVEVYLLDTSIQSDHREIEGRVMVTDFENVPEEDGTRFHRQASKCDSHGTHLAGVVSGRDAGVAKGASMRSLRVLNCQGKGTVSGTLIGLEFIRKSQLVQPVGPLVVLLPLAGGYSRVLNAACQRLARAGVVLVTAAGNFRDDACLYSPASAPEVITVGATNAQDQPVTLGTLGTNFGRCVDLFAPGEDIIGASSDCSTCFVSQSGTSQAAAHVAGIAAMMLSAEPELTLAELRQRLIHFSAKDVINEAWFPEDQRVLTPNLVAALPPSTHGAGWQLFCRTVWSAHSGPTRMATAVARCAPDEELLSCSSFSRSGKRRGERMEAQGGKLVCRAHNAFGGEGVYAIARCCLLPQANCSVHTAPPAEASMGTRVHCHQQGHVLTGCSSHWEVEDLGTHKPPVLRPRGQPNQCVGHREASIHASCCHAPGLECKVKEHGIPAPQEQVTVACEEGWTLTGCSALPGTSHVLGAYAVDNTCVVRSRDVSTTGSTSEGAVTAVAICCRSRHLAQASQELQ
Assay: TR-FRET competition (PCSK9Δhelix/Ab20 assay); competitor Ab20
Bridge positions count the residues as written; N and C are the ends. Square brackets hold non-standard residues; d marks the D form.
The entries below come with measured IC50 values attached.
All answers are understood in µM, so give the number only.

Q: Look up IC50 of Ac-CRLPWNLQRIGL[dP]C-NH2 (disulfide 1-14; SMILES CC[C@H](C)[C@@H]1NC(=O)[C@H](CCCNC(=N)N)NC(=O)[C@H](CCC(N)=O)NC(=O)[C@H](CC(C)C)NC(=O)[C@H](CC(N)=O)NC(=O)[C@H](Cc2c[nH]c3ccccc23)NC(=O)[C@@H]2CCCN2C(=O)[C@H](CC(C)C)NC(=O)[C@H](CCCNC(=N)N)NC(=O)[C@@H](NC(C)=O)CSSC[C@@H](C(N)=O)NC(=O)[C@H]2CCCN2C(=O)[C@H](CC(C)C)NC(=O)CNC1=O) [Compound 99 (Ac-CRLPWNLQRIGLpC-NH2)] and report it.
A: 1.3

Q: Respond only with IC50 recorded for Ac-CWNLKRIGSQGCW-NH2 (disulfide 1-12; SMILES CC[C@H](C)[C@@H]1NC(=O)[C@H](CCCNC(=N)N)NC(=O)[C@H](CCCCN)NC(=O)[C@H](CC(C)C)NC(=O)[C@H](CC(N)=O)NC(=O)[C@H](Cc2c[nH]c3ccccc23)NC(=O)[C@@H](NC(C)=O)CSSC[C@@H](C(=O)N[C@@H](Cc2c[nH]c3ccccc23)C(N)=O)NC(=O)CNC(=O)[C@H](CCC(N)=O)NC(=O)[C@H](CO)NC(=O)CNC1=O) [Compound 39 (Ac-CWNLKRIGSQGCW-NH2)]
A: 37.5

Q: Please give the documented IC50 of Ac-[dC]RLPWNLQRIGLPC-NH2 (disulfide 1-14; SMILES CC[C@H](C)[C@@H]1NC(=O)[C@H](CCCNC(=N)N)NC(=O)[C@H](CCC(N)=O)NC(=O)[C@H](CC(C)C)NC(=O)[C@H](CC(N)=O)NC(=O)[C@H](Cc2c[nH]c3ccccc23)NC(=O)[C@@H]2CCCN2C(=O)[C@H](CC(C)C)NC(=O)[C@H](CCCNC(=N)N)NC(=O)[C@H](NC(C)=O)CSSC[C@@H](C(N)=O)NC(=O)[C@@H]2CCCN2C(=O)[C@H](CC(C)C)NC(=O)CNC1=O) [Compound 110 (Ac-cRLPWNLQRIGLPC-NH2)]
A: 1.78

Q: Read the entry Ac-WCLWNLKRIGSQCEY-NH2 (disulfide 2-13; SMILES CC[C@H](C)[C@@H]1NC(=O)[C@H](CCCNC(=N)N)NC(=O)[C@H](CCCCN)NC(=O)[C@H](CC(C)C)NC(=O)[C@H](CC(N)=O)NC(=O)[C@H](Cc2c[nH]c3ccccc23)NC(=O)[C@H](CC(C)C)NC(=O)[C@@H](NC(=O)[C@H](Cc2c[nH]c3ccccc23)NC(C)=O)CSSC[C@@H](C(=O)N[C@@H](CCC(=O)O)C(=O)N[C@@H](Cc2ccc(O)cc2)C(N)=O)NC(=O)[C@H](CCC(N)=O)NC(=O)[C@H](CO)NC(=O)CNC1=O) [Compound 65 (Ac-WCLWNLKRIGSQCEY-NH2)] and write its reported IC50.
A: 7.1
